target: T1, human nerve growth factor (human, UniProt P01138 122-241); test: BIAcore SPR screen, Fab over immobilised human NGF; KD calculated from koff with kon 4e4 M-1s-1
T1 construct: Immobilised on CM5 chips for BIAcore, soluble in neuron survival assays; also called human NGF; hNGF
T1 sequence (P01138 122-241 limits assumed): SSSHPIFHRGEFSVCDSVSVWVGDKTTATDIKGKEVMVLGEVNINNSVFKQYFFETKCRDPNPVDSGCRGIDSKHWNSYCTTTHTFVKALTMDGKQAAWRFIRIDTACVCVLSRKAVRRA
// reported Kd per item
Response body: numeric value in nM, unit text excluded.

Illustrative cases are given below, each with its answer.
binder	measurement_name	readout_units	quantitative_readout
8L2-6D5 Fab with CDR H3 mutation D109N (Fab, V domains shown, See note of m8) VH: QVQLQESGPGLVKPSETLSLTCTVSGFSLIGYDINWIRQPPGKGLEWIGMIWGDGTTDYNSALKSRVTISKDTSKNQFSLKLSSVTAADTAVYYCARGGYYYGTSYYFNYWGQGTLVTVS VL: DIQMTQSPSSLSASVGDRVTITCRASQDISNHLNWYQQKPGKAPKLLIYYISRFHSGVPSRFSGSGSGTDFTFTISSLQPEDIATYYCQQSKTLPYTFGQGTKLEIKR	Kd	nM	37
8L2-6D5 Fab with CDR H3 mutation Y100R (Fab, V domains shown, See note of m8) VH: QVQLQESGPGLVKPSETLSLTCTVSGFSLIGYDINWIRQPPGKGLEWIGMIWGDGTTDYNSALKSRVTISKDTSKNQFSLKLSSVTAADTAVYYCARGGRYYGTSYYFDYWGQGTLVTVS VL: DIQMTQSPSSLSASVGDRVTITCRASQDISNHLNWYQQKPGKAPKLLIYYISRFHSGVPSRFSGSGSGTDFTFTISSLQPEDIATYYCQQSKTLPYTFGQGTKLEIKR	Kd	nM	27

Tell me its Kd given 8L2-6D5 Fab with CDR H3 mutation Y100L (Fab, V domains shown, See note of m8) VH: QVQLQESGPGLVKPSETLSLTCTVSGFSLIGYDINWIRQPPGKGLEWIGMIWGDGTTDYNSALKSRVTISKDTSKNQFSLKLSSVTAADTAVYYCARGGLYYGTSYYFDYWGQGTLVTVS VL: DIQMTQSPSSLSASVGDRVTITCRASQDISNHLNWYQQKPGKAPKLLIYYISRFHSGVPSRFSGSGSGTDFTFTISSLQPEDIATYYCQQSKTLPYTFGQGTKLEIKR as the entry.
30
